- Tested Target: T1, mouse PCSK9 (mouse, UniProt Q80W65 35-694, limits assumed)
- T1 construct: also called mPCSK9; msPCK9
- T1 sequence (Q80W65 35-694 limits assumed): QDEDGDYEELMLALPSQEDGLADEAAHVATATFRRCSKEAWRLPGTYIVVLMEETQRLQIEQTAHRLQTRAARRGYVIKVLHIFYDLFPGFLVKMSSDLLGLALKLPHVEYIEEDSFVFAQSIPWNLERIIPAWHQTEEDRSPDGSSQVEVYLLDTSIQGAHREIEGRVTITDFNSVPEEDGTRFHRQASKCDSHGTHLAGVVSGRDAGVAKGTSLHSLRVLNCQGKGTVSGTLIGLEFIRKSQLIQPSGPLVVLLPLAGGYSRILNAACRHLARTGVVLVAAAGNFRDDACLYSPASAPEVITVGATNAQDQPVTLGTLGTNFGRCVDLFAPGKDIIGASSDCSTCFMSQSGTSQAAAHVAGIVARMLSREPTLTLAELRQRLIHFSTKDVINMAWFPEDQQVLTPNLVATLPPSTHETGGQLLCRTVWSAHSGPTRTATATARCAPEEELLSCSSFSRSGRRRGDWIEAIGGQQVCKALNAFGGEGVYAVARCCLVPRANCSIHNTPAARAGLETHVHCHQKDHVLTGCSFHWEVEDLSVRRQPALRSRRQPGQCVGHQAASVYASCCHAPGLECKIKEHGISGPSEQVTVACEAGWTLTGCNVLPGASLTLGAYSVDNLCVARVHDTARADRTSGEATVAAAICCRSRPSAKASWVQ
- Assay Notes: SPR Biacore 3000, captured IgG, mPCSK9 injected, pH 5.5
Test Readout: kon (M⁻¹ s⁻¹)
# number only, unit M⁻¹ s⁻¹ dropped from output

5L1724H23_6L3H3 (antibody, V domains shown, Only CDRs printed; Full-length IgG) VH: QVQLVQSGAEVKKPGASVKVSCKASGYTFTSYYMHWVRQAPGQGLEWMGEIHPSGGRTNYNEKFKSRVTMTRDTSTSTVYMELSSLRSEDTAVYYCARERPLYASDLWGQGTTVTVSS VL: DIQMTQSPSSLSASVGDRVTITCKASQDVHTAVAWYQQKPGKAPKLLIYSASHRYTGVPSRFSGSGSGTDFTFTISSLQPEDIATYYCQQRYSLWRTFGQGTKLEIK
211000

Given the binder 5L1721H23_6H3 (antibody, V domains shown, Only CDRs printed; Full-length IgG) VH: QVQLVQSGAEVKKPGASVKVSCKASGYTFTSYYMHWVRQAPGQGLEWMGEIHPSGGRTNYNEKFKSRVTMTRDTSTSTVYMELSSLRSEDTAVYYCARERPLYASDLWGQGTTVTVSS VL: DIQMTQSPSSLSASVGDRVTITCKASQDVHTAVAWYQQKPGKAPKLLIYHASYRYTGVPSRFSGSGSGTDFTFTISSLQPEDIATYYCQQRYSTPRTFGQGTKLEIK , what is its reported kon? 307000

Which kon is reported for this binder? 6L1721H23 (antibody, V domains shown, L1L3-based mutant; Full-length IgG) VH: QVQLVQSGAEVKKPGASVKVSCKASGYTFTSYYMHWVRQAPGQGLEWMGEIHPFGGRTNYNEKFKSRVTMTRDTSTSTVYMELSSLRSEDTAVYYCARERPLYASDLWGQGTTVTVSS VL: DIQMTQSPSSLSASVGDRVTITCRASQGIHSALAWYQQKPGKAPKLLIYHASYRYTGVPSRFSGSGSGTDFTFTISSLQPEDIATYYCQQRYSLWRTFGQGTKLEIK 204000

Given the entry 5L1721H23_6L3H3 (antibody, V domains shown, Tested as full-length IgG; also called heavy UC-H5H23-6H3, light UC-H5L1721-6L3) VH: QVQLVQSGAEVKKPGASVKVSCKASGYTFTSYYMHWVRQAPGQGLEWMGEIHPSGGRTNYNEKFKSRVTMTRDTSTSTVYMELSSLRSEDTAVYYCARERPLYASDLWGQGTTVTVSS VL: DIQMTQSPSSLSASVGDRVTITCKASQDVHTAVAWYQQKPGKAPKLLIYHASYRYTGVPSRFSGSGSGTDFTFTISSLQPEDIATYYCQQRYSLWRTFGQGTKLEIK , report its measured kon. 160000

Can you look up the measured kon of 5L1721H23_6L3 (antibody, V domains shown, Tested as full-length IgG; also called heavy UC-H5H23, light UC-H5L1721-6L3) VH: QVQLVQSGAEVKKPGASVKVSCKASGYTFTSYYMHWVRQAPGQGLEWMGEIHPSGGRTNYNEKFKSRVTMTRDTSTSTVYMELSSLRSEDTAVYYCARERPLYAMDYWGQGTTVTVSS VL: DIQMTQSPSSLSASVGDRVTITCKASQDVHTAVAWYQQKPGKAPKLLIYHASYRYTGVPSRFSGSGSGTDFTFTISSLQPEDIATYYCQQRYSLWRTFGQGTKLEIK for me? 105000

Quick check: kon of 6L21H2335 (antibody, V domains shown) VH: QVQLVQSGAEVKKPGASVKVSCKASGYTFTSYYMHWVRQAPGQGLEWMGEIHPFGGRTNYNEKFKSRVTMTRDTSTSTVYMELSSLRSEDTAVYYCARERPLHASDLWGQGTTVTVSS VL: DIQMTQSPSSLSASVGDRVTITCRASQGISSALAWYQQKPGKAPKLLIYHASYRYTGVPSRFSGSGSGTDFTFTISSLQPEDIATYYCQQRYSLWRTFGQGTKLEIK ? 526000

Which kon is reported for this binder? 5L1721H23 (antibody, V domains shown, Triple histidine mutant of h5A10; Only CDRs printed; Full-length IgG) VH: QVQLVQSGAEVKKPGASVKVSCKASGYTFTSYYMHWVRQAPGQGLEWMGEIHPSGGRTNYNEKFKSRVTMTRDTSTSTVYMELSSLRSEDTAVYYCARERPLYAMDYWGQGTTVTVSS VL: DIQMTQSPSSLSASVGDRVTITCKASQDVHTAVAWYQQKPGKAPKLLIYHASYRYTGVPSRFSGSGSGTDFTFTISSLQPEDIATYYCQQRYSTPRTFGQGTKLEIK 102000

Just for reference, patent US20150266974A1 is where these values come from.
